The measured values listed here are drawn from ChEMBL document CHEMBL1132926.

Below are log10 Ki values measured for Alpha-2B adrenergic receptor (Homo sapiens, UniProt P18089).
Measured endpoint: log10 Ki (log10 of the value in nM)

[
  {
    "Compound": "CCC[C@H]1CCCC[C@@H]1NC1=NCCO1",
    "log10 Ki": 0.77
  },
  {
    "Compound": "c1ccc([C@H]2CCCC[C@@H]2NC2=NCCO2)cc1",
    "log10 Ki": 1.35
  },
  {
    "Compound": "c1ccc(CC[C@H]2CCCC[C@@H]2NC2=NCCO2)cc1",
    "log10 Ki": 0.84
  },
  {
    "Compound": "C(=C\\c1ccccc1)/C[C@H]1C2CCC(C2)[C@H]1NC1=NCCO1 (stereo not given in full)",
    "log10 Ki": 2.01
  },
  {
    "Compound": "c1ccc(C[C@H]2C3CCC(C3)[C@H]2NC2=NCCO2)cc1 (stereo not given in full)",
    "log10 Ki": 1.61
  }
]

###

biological target: Alpha-2B adrenergic receptor (Homo sapiens); test: Alpha-2B adrenergic receptor agonism measured as ability to inhibit forskolin-stimulated synthesis of cAMP
Sequence (P18089 whole entry): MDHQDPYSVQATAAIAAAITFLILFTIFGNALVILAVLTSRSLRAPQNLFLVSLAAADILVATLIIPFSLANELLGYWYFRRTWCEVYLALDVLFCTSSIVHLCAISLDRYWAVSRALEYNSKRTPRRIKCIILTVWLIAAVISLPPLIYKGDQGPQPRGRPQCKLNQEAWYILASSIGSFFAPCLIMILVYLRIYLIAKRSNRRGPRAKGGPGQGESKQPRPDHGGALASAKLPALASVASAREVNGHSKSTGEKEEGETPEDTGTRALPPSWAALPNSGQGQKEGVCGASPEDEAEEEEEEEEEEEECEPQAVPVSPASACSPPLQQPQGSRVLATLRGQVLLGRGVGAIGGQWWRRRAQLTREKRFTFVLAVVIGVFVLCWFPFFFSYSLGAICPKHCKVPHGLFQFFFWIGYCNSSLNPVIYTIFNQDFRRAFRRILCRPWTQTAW
pEC50: −log10 of the molar value.

[
  {
    "Compound": "CCC[C@H]1CCCC[C@@H]1NC1=NCCO1",
    "Test system": "Alpha-2B adrenergic receptor (Homo sapiens)",
    "pEC50": 8.03
  },
  {
    "Compound": "CCC[C@H]1C2CCC(C2)[C@H]1NC1=NCCO1 (some centres not stated)",
    "Test system": "Alpha-2B adrenergic receptor (Homo sapiens)",
    "pEC50": 6.25
  }
]

###

biological target: UniProtKB P08913
pKi: −log10 of the molar value.
Tick 1 if pKi is 8 or greater. Tick 0 if pKi is less than 8.

[
  {
    "Molecule": "c1ccc([C@H]2CCCC[C@@H]2NC2=NCCO2)cc1",
    "Class assignment": 0
  },
  {
    "Molecule": "c1ccc(CC[C@H]2CCCC[C@@H]2NC2=NCCO2)cc1",
    "Class assignment": 1
  },
  {
    "Molecule": "c1ccc(CCC[C@H]2C3CCC(C3)[C@H]2NC2=NCCO2)cc1 (some centres not stated)",
    "Class assignment": 0
  },
  {
    "Molecule": "CCC[C@H]1CCCC[C@@H]1NC1=NCCO1",
    "Class assignment": 1
  }
]

###

biological target: Alpha-2C adrenergic receptor (Homo sapiens, UniProt P18825); assay: Inhibitory constant, using [3H]rauwolscine in LM(tk-) cells stably transfected with cloned human Alpha-2C adrenergic receptor; assay type: cell-based
Sequence (P18825 whole entry): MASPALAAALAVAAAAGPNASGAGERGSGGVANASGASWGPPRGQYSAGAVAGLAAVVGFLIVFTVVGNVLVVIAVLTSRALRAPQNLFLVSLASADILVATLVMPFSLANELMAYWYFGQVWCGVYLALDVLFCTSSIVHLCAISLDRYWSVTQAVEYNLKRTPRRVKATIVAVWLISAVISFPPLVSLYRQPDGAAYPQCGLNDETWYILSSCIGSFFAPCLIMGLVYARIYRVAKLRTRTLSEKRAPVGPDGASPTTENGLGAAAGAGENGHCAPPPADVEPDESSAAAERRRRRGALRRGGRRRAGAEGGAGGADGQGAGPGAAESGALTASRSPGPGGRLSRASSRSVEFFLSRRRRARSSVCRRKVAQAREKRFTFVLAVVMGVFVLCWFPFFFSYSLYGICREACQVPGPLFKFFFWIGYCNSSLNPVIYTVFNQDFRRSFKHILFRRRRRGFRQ
Ki reference
Measured endpoint: Ki (nM)

[
  {
    "Compound": "CCC[C@H]1C2CCC(C2)[C@H]1NC1=NCCO1 (stereo partly specified)",
    "Measured endpoint": "Ki",
    "Numeric value": 123
  },
  {
    "Compound": "c1ccc(CCC[C@H]2C3CCC(C3)[C@H]2NC2=NCCO2)cc1 (stereo partly specified)",
    "Measured endpoint": "Ki",
    "Numeric value": 123
  },
  {
    "Compound": "c1ccc(CC[C@H]2CCCC[C@@H]2NC2=NCCO2)cc1",
    "Measured endpoint": "Ki",
    "Numeric value": 10.7
  },
  {
    "Compound": "c1ccc([C@H]2CCCC[C@@H]2NC2=NCCO2)cc1",
    "Measured endpoint": "Ki",
    "Numeric value": 52.5
  },
  {
    "Compound": "C(=C\\c1ccccc1)/C[C@H]1C2CCC(C2)[C@H]1NC1=NCCO1 (stereo partly specified)",
    "Measured endpoint": "Ki",
    "Numeric value": 85.1
  },
  {
    "Compound": "c1ccc(C[C@H]2C3CCC(C3)[C@H]2NC2=NCCO2)cc1 (stereo partly specified)",
    "Measured endpoint": "Ki",
    "Numeric value": 79.4
  }
]

###

Ki reference
Target protein (sequence): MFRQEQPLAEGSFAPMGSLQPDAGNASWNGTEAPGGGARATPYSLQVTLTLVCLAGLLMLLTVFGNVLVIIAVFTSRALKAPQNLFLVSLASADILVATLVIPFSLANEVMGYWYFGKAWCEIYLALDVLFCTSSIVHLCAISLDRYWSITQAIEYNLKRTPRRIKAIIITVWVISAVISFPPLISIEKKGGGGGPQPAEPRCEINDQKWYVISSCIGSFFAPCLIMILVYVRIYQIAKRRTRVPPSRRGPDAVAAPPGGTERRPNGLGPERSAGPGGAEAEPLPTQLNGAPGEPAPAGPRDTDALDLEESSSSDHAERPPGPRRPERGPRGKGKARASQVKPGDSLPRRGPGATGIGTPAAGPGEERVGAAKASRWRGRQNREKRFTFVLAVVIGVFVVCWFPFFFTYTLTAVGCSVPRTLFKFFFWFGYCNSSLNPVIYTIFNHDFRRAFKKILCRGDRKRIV

[
  {
    "Molecule": "C(=C\\c1ccccc1)/C[C@H]1C2CCC(C2)[C@H]1NC1=NCCO1 (stereo partly drawn)",
    "Ki [nM]": 15.8
  },
  {
    "Molecule": "c1ccc(C[C@H]2C3CCC(C3)[C@H]2NC2=NCCO2)cc1 (stereo partly drawn)",
    "Ki [nM]": 13.8
  },
  {
    "Molecule": "c1ccc(CCC[C@H]2CCCC[C@@H]2NC2=NCCO2)cc1",
    "Ki [nM]": 15.1
  }
]
